- target_system: Stimulator of interferon genes protein [1-379,R71H,G230A,H232R,R293Q] (Homo sapiens, UniProt Q86WV6, G230A/H232R/R293Q/R71H)
- Construct: 1-379
- Sequence (Q86WV6 whole entry R71H/G230A/H232R/R293Q, looked up): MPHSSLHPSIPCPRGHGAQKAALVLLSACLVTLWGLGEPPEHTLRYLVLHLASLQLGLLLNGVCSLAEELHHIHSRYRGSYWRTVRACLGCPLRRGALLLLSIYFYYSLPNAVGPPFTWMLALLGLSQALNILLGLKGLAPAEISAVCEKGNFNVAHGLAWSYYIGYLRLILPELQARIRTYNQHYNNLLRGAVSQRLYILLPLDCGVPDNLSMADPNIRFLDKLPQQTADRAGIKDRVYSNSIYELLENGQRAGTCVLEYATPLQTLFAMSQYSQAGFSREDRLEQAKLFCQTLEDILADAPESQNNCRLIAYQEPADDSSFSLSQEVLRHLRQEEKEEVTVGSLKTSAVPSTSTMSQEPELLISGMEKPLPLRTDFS
- protocol: Surface Plasmon Resonance (SPR)
Each entry below carries its reported Kd.
Your answer is read as nM, so omit the unit and give the number.

-- ask # get_value(readout='Kd', item= `NC(=O)c1ccc2c(c1)nc(-c1c(Br)cccc1C(=O)O)n2CCn1c(-c2c(Br)cccc2C(=O)O)nc2cc(C(N)=O)ccc21` )
-- reply 936

-- ask Would you mind telling me what Kd value was observed for `COc1c(C(N)=O)ccc2c1nc(-c1cc(F)c(F)cc1C(=O)O)n2CCn1c(-c2cc(F)c(F)cc2C(=O)O)nc2c(OC)c(C(N)=O)ccc21` ?
-- reply 6340

-- ask Please give the measured Kd for this compound: `COc1c(C(N)=O)ccc2c1nc(-c1c(I)cccc1C(=O)O)n2CCn1c(-c2c(I)cccc2C(=O)O)nc2c(OC)c(C(N)=O)ccc21`
-- reply 2

Others:
-- ask # Kd lookup, item `NC(=O)c1ccc2c(c1)nc(-c1ccc(Cl)cc1C(=O)O)n2CCn1c(-c2ccc(Cl)cc2C(=O)O)nc2cc(C(N)=O)ccc21`
-- reply 300000
